Entry source: ChEMBL document CHEMBL3885881

# maps each entry to its ALBUMIN
species on record: Rattus norvegicus; test: DrugMatrix - Regimen: Daily Repeat; assay type: toxicity, organism-based, Sprague-Dawley; design: regimen Daily Repeat, gender Male, age 6-8 weeks; settings: in vivo, po, 0 mg/kg, 120 h, tissue Plasma, route oral GAVAGE, dose level Control, time 5 day, […]
Provide a numeric answer, followed by its unit.

INSERT INTO results (compound, assay_endpoint, endpoint_value) VALUES
  ('CO[C@H]1O[C@@H]2O[C@@]3(C)CC[C@H]4[C@H](C)CC[C@@H]([C@H]1C)[C@@]24OO3', 'ALBUMIN', '4.28 G/DL'),
  ('COc1ccccc1OCCNCC(O)COc1cccc2[nH]c3ccccc3c12 (configuration not stated)', 'ALBUMIN', '4.12 G/DL'),
  ('CS(=O)(=O)c1ccc(C2=C(c3ccccc3)C(=O)OC2)cc1', 'ALBUMIN', '4.15 G/DL'),
  ('Cc1cccc(C)c1NC(=O)C(C)N (configuration not stated) [TOCAINIDE]', 'ALBUMIN', '4.07 G/DL'),
  ('COC(=O)Nc1nc2ccc(C(=O)c3ccccc3)cc2[nH]1', 'ALBUMIN', '4.12 G/DL'),
  ('CCOC(=O)C1=C(C)NC(C)=C(C(=O)OCC)C1c1ccccc1/C=C/C(=O)OC(C)(C)C', 'ALBUMIN', '4.12 G/DL'),
  ('CC#C[C@]1(O)CC[C@H]2[C@@H]3CCC4=CC(=O)CCC4=C3[C@@H](c3ccc(N(C)C)cc3)C[C@@]21C', 'ALBUMIN', '3.97 G/DL'),
  ('CCC(C)(C)C(=O)O[C@H]1C[C@@H](C)C=C2C=C[C@H](C)[C@H](CC[C@@H]3C[C@@H](O)CC(=O)O3)[C@H]21', 'ALBUMIN', '3.97 G/DL');

Dear colleague, I am looking for the recorded ALBUMIN of the following compound: O=C(O)COC(=O)Cc1ccccc1Nc1c(Cl)cccc1Cl
4.12 G/DL

Bench note: what ALBUMIN did CC(C)(c1ccc(O)cc1)c1ccc(O)cc1 show?
4.17 G/DL

Endpoint output: ALBUMIN of O=C(Nc1ccc(Cl)c(Cl)c1)c1cc(Cl)cc(Cl)c1O [3,3',4',5-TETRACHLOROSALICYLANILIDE] . Value?
3.92 G/DL

Reported ALBUMIN for Oc1ncnc2[nH]ncc12 : what is it?
4.17 G/DL

---

In this section, each of the compounds is paired with its reported CREATINE PHOSPHOKINASE.
organism: Rattus norvegicus; experiment: DrugMatrix - Regimen: Daily Repeat; format: toxicity, organism-based, Sprague-Dawley; set-up: regimen Daily Repeat, gender Male, age 6-8 weeks; settings: in vivo, iv, 0 mg/kg, 72 h, tissue Plasma, dose level Control, time 3 day, vehicle 100 % SALINE
Write down the numeric answer in u/L and omit the unit.

INSERT INTO results (smiles_input, endpoint_value) VALUES
  ('CC(=O)[C@]1(O)Cc2c(O)c3c(c(O)c2[C@@H](O[C@H]2C[C@H](N)[C@H](O)[C@H](C)O2)C1)C(=O)c1ccccc1C3=O', 414.67);

GET /values?readout=CREATINE PHOSPHOKINASE&item= COC(=O)C[C@](O)(CCC(C)(C)O)C(=O)O[C@@H]1C(OC)=C[C@]23CCCN2CCc2cc4c(cc2[C@H]13)OCO4
275.33

I would be grateful if you could share the reported CREATINE PHOSPHOKINASE for Cc1c(N)nc([C@H](CC(N)=O)NC[C@H](N)C(N)=O)nc1C(=O)N[C@H](C(=O)N[C@H](C)[C@@H](O)[C@H](C)C(=O)N[C@H](C(=O)NCCc1nc(-c2nc(C(=O)NCCC[S+](C)C)cs2)cs1)[C@@H](C)O)[C@@H](O[C@@H]1O[C@@H](CO)[C@@H](O)[C@H](O)[C@@H]1O[C@H]1O[C@H](CO)[C@@H](O)[C@H](OC(N)=O)[C@@H]1O)c1c[nH]cn1.[Br-] .
494.67

What value of CREATINE PHOSPHOKINASE has been reported for the following compound? CO[C@@]12[C@H](COC(N)=O)C3=C(C(=O)C(C)=C(N)C3=O)N1C[C@@H]1N[C@@H]12
284
